- system_tested: T1, recombinant rat MASP1 active protease (amino acids 302-704, C-terminal His Tag) (rat, UniProt Q8CHN8 302-704)
- T1 sequence: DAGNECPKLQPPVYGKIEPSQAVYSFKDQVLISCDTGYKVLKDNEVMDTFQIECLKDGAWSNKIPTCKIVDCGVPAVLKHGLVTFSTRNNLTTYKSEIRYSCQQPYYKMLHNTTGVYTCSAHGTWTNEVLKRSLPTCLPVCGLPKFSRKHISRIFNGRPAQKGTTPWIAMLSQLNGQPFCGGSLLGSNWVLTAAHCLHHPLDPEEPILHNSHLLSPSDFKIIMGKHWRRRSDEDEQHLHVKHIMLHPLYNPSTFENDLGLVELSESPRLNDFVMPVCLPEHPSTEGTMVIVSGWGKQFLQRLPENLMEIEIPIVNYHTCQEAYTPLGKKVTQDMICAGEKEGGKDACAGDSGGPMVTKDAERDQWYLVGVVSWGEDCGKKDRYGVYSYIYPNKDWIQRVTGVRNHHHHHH
- procedure_text: cell-based or functional assay
Bridge positions count the residues as written; N and C are the ends. Square brackets hold non-standard residues; d marks the D form. Ends that are not written are not given here. Oic = O=C(O)[C@@H]1C[C@@H]2CCCC[C@@H]2N1; tBuAla = CC(C)(C)C[C@H](N)C(=O)O; Pen = CC(C)(S)[C@H](N)C(=O)O; Orn = NCCC[C@H](N)C(=O)O; Sar = CNCC(=O)O
Entries annotated with measured rat MASP1 IC50
experimental_endpoint: rat MASP1 IC50 (nM)

INSERT INTO measurements (binder, measured) VALUES
  ('AICSRSL[(4aR,6aR,9S,11aS)‑11‑Oxo‑2,3,4,4a,6a,7,8,9,11,11a‑decahydro‑1H‑pyrido(3,2-e)pyrrolo(1,2-a)azepine‑9‑carboxylic acid]ICIPD-NH2 (disulfide 3-10)', 130),
  ('[Sar]ICSRSLP[Oic]I[Pen]IPR-OH (disulfide 3-11; N-terminus assumed; SMILES CC[C@H](C)[C@H](NC(=O)CNC)C(=O)N[C@H]1CSSC(C)(C)[C@@H](C(=O)N[C@H](C(=O)N2CCC[C@H]2C(=O)N[C@@H](CCCNC(=N)N)C(=O)O)[C@@H](C)CC)NC(=O)[C@H]([C@@H](C)CC)NC(=O)[C@@H]2C[C@@H]3CCCC[C@@H]3N2C(=O)[C@@H]2CCCN2C(=O)[C@H](CC(C)C)NC(=O)[C@H](CO)NC(=O)[C@H](CCCNC(=N)N)NC(=O)[C@H](CO)NC1=O) [Example 487: ((N-Me)G)-IC+SRSLP-(Oic)-I-(Pen)+IPR-OH]', 67),
  ('[Sar][Orn][Orn][Orn]ICSRS[tBuAla]PPI[Pen]IP-NH2 (disulfide 6-14; N-terminus assumed; SMILES CC[C@H](C)[C@H](NC(=O)[C@H](CCCN)NC(=O)[C@H](CCCN)NC(=O)[C@H](CCCN)NC(=O)CNC)C(=O)N[C@H]1CSSC(C)(C)[C@@H](C(=O)N[C@H](C(=O)N2CCC[C@H]2C(N)=O)[C@@H](C)CC)NC(=O)[C@H]([C@@H](C)CC)NC(=O)[C@@H]2CCCN2C(=O)[C@@H]2CCCN2C(=O)[C@H](CC(C)(C)C)NC(=O)[C@H](CO)NC(=O)[C@H](CCCNC(=N)N)NC(=O)[C@H](CO)NC1=O) [Example 381: ((N-Me)G)-(Orn)-(Orn)-(Orn)-IC+SRS-((tBu)A)-PPI-(Pen)+IP-NH2]', 600);
